Assay: VP16 counterscreen qHTS for inhibitors of ROR gamma transcriptional activity;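 also: Gal4-VP16 expression switched on by copper sulfate through the metallothionein promoter; nearly all actives have a fitted effect of over 50% in size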
Settings: Drosophila S2 Gal4-VP16 UAS-luciferase, luminescence, 20 h; series mostly up to 53.6 µM
Hit rate of the full screen: of about 310,000 compounds, about 11,000 (3.5%) were called active. Roughly 8% stayed inconclusive and do not appear here. Calls follow the shape of the dose curve; as a rule, active = well fitted inhibition curve with a large enough effect; inconclusive = small, poorly fitted or top-dose-only effect, or effect the other way; inactive = flat fitted curve, though single readings scatter. This is one part of a sample in which actives are shown more often than they occur.
Can you answer with just one of these options? YES = active, NO = inactive

A selection of reference data follows.
{"columns": ["Structure notation", "Group"],
 "data": [
  ["COc1ccc(OCC(=O)NNC(=O)c2ccc(-c3ccccc3)cc2)cc1", "NO"],
  ["COc1ccc(C(=O)NNC(=S)NC(=O)c2ccccc2)cc1", "YES"],
  ["COc1ccc(C(=O)NC(=S)NNC(=O)CCc2ccccc2)cc1", "YES"],
  ["O=C(CCN1c2ccccc2Sc2ccccc21)Nc1ccccc1", "NO"],
  ["O=C(Nc1ccccc1)OCc1cc(-c2ccc(Cl)cc2)on1", "NO"],
  ["COc1ccc(C(=O)NC2CCN(C(=S)NCCc3ccccc3)CC2)cc1", "NO"],
  ["COc1ccc(CC(=O)Nc2nc(-c3ccc(F)c(F)c3)cs2)cc1OC", "YES"],
  ["CCN1/C(=C/C(=S)Nc2ccccc2)Sc2ccccc21", "YES"]
]}

Prompt line: Outcome logged for O=C(NC(=S)NC1CCCCC1)c1ccc(Cl)cc1 in this assay:
Response line: NO

Prompt line: Outcome logged for O=C1C=C(c2ccc(Cl)cc2)C(=O)N1Nc1ccccc1 in this assay:
Response line: YES

Prompt line: Outcome logged for COc1ccc(C(=O)c2c(C)c(CCC#N)n3ccccc23)c(OC)c1 in this assay:
Response line: NO
